# System: HCT116 WT cells
# assay.details: HCT116 proliferation assay, WT cells (CellTiter-Glo, 6 days)
# Assay type: cell-based
# measurement.setup: Homo sapiens, HCT-116, 144 h, read-out: Prolif_HCT116-WT IC50
pIC50: −log10 of the molar value.
observation.type: pIC50

Recorded pIC50, per entry:
> print(dat)
                                   compound  observation.type  reported.value
1  Cc1cc2cc(C(=O)N(Cc3ncc(C(F)(F)F)cc3Cl)[C@H](C)c3ncccc3F)ccc2nc1N [Example 396]             pIC50          < 5.00
2  CC(C)CN(Cc1ccc(C(F)(F)F)cn1)C(=O)c1ccc2nc(N)c(Br)cc2c1 [Example 318]             pIC50          < 5.00
3  Cc1cc2cc(C(=O)N(Cc3ccc(C#N)cn3)[C@H](C)c3ncccn3)ncc2nc1N [Example 418]             pIC50          < 5.00
4  Cc1cc2cc(C(=O)N(Cc3cccc(C(F)(F)F)n3)[C@H](C)c3ncccn3)ccc2nc1N (single isomer, unassigned) [Example 526]             pIC50          < 5.00
5  Cc1cc2cc(C(=O)N(Cc3ccc(C(F)(F)F)cn3)C(C)C3CCOCC3)ccc2nc1N (stereo not shown) [Example 675]             pIC50          < 6.00

Problem: Given the entry C[C@H](c1ncccn1)N(Cc1ccc(C#N)cn1)C(=O)c1ccc2nc(N)c(Br)cc2c1 [Example 417] , report its measured pIC50.
Result: < 5.00

Problem: Given the entry Cc1cc2cc(C(=O)N(Cc3ccc(C(F)(F)F)cn3)Cc3cc(Cl)cn3C)ccc2nc1N [Example 582] , report its measured pIC50.
Result: < 6.00
